- Test system: Mannhemia hemolytica KB345
- experimentDescription: Paper disc assay, M. hemolytica KB345 (Tilmicosin-sensitivity strain)
- Assay type: cell-based
- condition: 24 h, Table 2; 30 mg/6 mm disk
experimentalEndpoint: zone of inhibition at 30 mg/disc (mm)
Please state the figure in mm; there is no need to write the unit.

zone of inhibition at 30 mg/disc recorded for this compound, CC[C@H]1OC(=O)C[C@@H](O)[C@H](C)[C@@H](O[C@@H]2OC(C)[C@@H](O)C(N(C)C)C2O)[C@@H](CCn2cc(-c3cccc(N)c3)nn2)C[C@@H](C)C(=O)/C=C/C(C)=C/[C@@H]1CO[C@@H]1OC(C)[C@@H](O)C(OC)C1OC (stereo partly drawn) , is 18

zone of inhibition at 30 mg/disc reading for `CC[C@H]1OC(=O)C[C@@H](O)[C@H](C)[C@@H](O[C@@H]2O[C@H](C)[C@@H](O)[C@H](N(C)C)[C@H]2O)[C@@H](CCn2cc(-c3ccsc3)nn2)C[C@@H](C)C(=O)/C=C/C(C)=C/[C@@H]1CO[C@@H]1O[C@H](C)[C@@H](O)[C@@H](OC)[C@H]1OC` : 19.5

Entry CC[C@H]1OC(=O)C[C@@H](O)[C@H](C)[C@@H](O[C@@H]2OC(C)[C@@H](O)C(N(C)C)C2O)[C@@H](CCn2cc(CC(C)C)nn2)C[C@@H](C)C(=O)/C=C/C(C)=C/[C@@H]1CO[C@@H]1OC(C)[C@@H](O)C(OC)C1OC (stereo partly drawn) — recorded zone of inhibition at 30 mg/disc = 17

Reported zone of inhibition at 30 mg/disc for CC[C@H]1OC(=O)C[C@@H](O)[C@H](C)[C@@H](O[C@@H]2OC(C)[C@@H](O)C(N(C)C)C2O)[C@@H](CCn2cc(Cn3nnc4ccccc43)nn2)C[C@@H](C)C(=O)/C=C/C(C)=C/[C@@H]1CO[C@@H]1OC(C)[C@@H](O)C(OC)C1OC (stereo partly drawn) was 16

The reported zone of inhibition at 30 mg/disc of the compound CC[C@H]1OC(=O)C[C@@H](O)[C@H](C)[C@@H](O[C@@H]2OC(C)[C@@H](O)C(N(C)C)C2O)[C@@H](CCn2cc(CO)nn2)C[C@@H](C)C(=O)/C=C/C(C)=C/[C@@H]1CO[C@@H]1OC(C)[C@@H](O)C(OC)C1OC (stereo partly drawn) was 9

The recorded zone of inhibition at 30 mg/disc for CC[C@H]1OC(=O)C[C@@H](O)[C@H](C)[C@@H](O[C@@H]2OC(C)[C@@H](O)C(N(C)C)C2O)[C@@H](CCn2cc(CCCCCl)nn2)C[C@@H](C)C(=O)/C=C/C(C)=C/[C@@H]1CO[C@@H]1OC(C)[C@@H](O)C(OC)C1OC (stereo partly drawn) is 18

Lab book: zone of inhibition at 30 mg/disc of CCCCCCCCCc1cn(CC[C@H]2C[C@@H](C)C(=O)/C=C/C(C)=C/[C@H](CO[C@@H]3OC(C)[C@@H](O)C(OC)C3OC)[C@@H](CC)OC(=O)C[C@@H](O)[C@H](C)[C@H]2O[C@@H]2OC(C)[C@@H](O)C(N(C)C)C2O)nn1 (stereo partly drawn) noted as 14

Briefly, zone of inhibition at 30 mg/disc measured for CCCCCOc1ccc(-c2cn(CC[C@H]3C[C@@H](C)C(=O)/C=C/C(C)=C/[C@H](CO[C@@H]4OC(C)[C@@H](O)C(OC)C4OC)[C@@H](CC)OC(=O)C[C@@H](O)[C@H](C)[C@H]3O[C@@H]3OC(C)[C@@H](O)C(N(C)C)C3O)nn2)cc1 (stereo partly drawn) : 13

Reported zone of inhibition at 30 mg/disc for CC[C@H]1OC(=O)C[C@@H](O)[C@H](C)[C@@H](O[C@@H]2OC(C)[C@@H](O)C(N(C)C)C2O)[C@@H](CCn2cc(-c3cccnc3)nn2)C[C@@H](C)C(=O)/C=C/C(C)=C/[C@@H]1CO[C@@H]1OC(C)[C@@H](O)C(OC)C1OC (stereo partly drawn) was 16.5

// zone of inhibition at 30 mg/disc value for CCCCc1cn(CC[C@H]2C[C@@H](C)C(=O)/C=C/C(C)=C/[C@H](CO[C@@H]3OC(C)[C@@H](O)C(OC)C3OC)[C@@H](CC)OC(=O)C[C@@H](O)[C@H](C)[C@H]2O[C@@H]2OC(C)[C@@H](O)C(N(C)C)C2O)nn1 (stereo partly drawn) : 17.5

Recorded result, CC[C@H]1OC(=O)C[C@@H](O)[C@H](C)[C@@H](O[C@@H]2OC(C)[C@@H](O)C(N(C)C)C2O)[C@@H](CCn2cc(-c3ccccn3)nn2)C[C@@H](C)C(=O)/C=C/C(C)=C/[C@@H]1CO[C@@H]1OC(C)[C@@H](O)C(OC)C1OC (stereo partly drawn) , zone of inhibition at 30 mg/disc: 19

# zone of inhibition at 30 mg/disc of `CC[C@H]1OC(=O)C[C@@H](O)[C@H](C)[C@@H](O[C@@H]2O[C@H](C)[C@@H](O[C@H]3C[C@@](C)(O)[C@@H](O)[C@H](C)O3)[C@H](N(C)C)[C@H]2O)[C@@H](CC=O)C[C@@H](C)C(=O)/C=C/C(C)=C/[C@@H]1CO[C@@H]1O[C@H](C)[C@@H](O)[C@@H](OC)[C@H]1OC` = 10.5

Record summary for CC[C@H]1OC(=O)C[C@@H](O)[C@H](C)[C@@H](O[C@@H]2OC(C)[C@@H](O)C(N(C)C)C2O)[C@@H](CCn2cc(-c3ccccc3)nn2)C[C@@H](C)C(=O)/C=C/C(C)=C/[C@@H]1CO[C@@H]1OC(C)[C@@H](O)C(OC)C1OC (stereo partly drawn) : reported zone of inhibition at 30 mg/disc = 18

zone of inhibition at 30 mg/disc reported for this compound CC[C@H]1OC(=O)C[C@@H](O)[C@H](C)[C@@H](O[C@@H]2OC(C)[C@@H](O)C(N(C)C)C2O)[C@@H](CCn2cc(-c3ccc(-c4ccccc4)cc3)nn2)C[C@@H](C)C(=O)/C=C/C(C)=C/[C@@H]1CO[C@@H]1OC(C)[C@@H](O)C(OC)C1OC (stereo partly drawn) : 18

The compound identified as CC[C@H]1OC(=O)C[C@@H](O)[C@H](C)[C@@H](O[C@@H]2OC(C)[C@@H](O)C(N(C)C)C2O)[C@@H](CCn2cc(C(C)(C)O)nn2)C[C@@H](C)C(=O)/C=C/C(C)=C/[C@@H]1CO[C@@H]1OC(C)[C@@H](O)C(OC)C1OC (stereo partly drawn) registered its zone of inhibition at 30 mg/disc at 14

---

- System: Xanthomonas campestris KB88
- experimentDescription: Paper disc assay, Xanthomonas campestris (X)
- Assay type: cell-based
- condition: 1 mg/6 mm disc
experimentalEndpoint: Inhibition zone (mm)
The response must be a number in mm with no trailing unit.

// recorded Inhibition zone (mm) for CC[C@H]1OC(=O)C[C@@H](O)[C@H](C)[C@@H](O[C@@H]2OC(C)[C@@H](O)C(N(C)C)C2O)[C@@H](CCn2cc(CCCCCl)nn2)C[C@@H](C)C(=O)/C=C/C(C)=C/[C@@H]1CO[C@@H]1OC(C)[C@@H](O)C(OC)C1OC (stereo partly drawn) : 14.5

Entry `CC[C@H]1OC(=O)C[C@@H](O)[C@H](C)[C@@H](O[C@@H]2O[C@H](C)[C@@H](O)[C@H](N(C)C)[C@H]2O)[C@@H](CCn2cc(-c3ccsc3)nn2)C[C@@H](C)C(=O)/C=C/C(C)=C/[C@@H]1CO[C@@H]1O[C@H](C)[C@@H](O)[C@@H](OC)[C@H]1OC` ; Inhibition zone (mm) = 16

Kindly note the recorded Inhibition zone (mm) for CC[C@H]1OC(=O)C[C@@H](O)[C@H](C)[C@@H](O[C@@H]2OC(C)[C@@H](O)C(N(C)C)C2O)[C@@H](CCn2cc(-c3ccc(N(C)C)cc3)nn2)C[C@@H](C)C(=O)/C=C/C(C)=C/[C@@H]1CO[C@@H]1OC(C)[C@@H](O)C(OC)C1OC (stereo partly drawn) , which is 15

The compound identified as CC[C@H]1OC(=O)C[C@@H](O)[C@H](C)[C@@H](O[C@@H]2OC(C)[C@@H](O)C(N(C)C)C2O)[C@@H](CCn2cc(-c3ccccc3)nn2)C[C@@H](C)C(=O)/C=C/C(C)=C/[C@@H]1CO[C@@H]1OC(C)[C@@H](O)C(OC)C1OC (stereo partly drawn) registered its Inhibition zone (mm) at 17

Field Inhibition zone (mm) (entry CC[C@H]1OC(=O)C[C@@H](O)[C@H](C)[C@@H](O[C@@H]2OC(C)[C@@H](O)C(N(C)C)C2O)[C@@H](CCn2cc(-c3ccccn3)nn2)C[C@@H](C)C(=O)/C=C/C(C)=C/[C@@H]1CO[C@@H]1OC(C)[C@@H](O)C(OC)C1OC (stereo partly drawn) ) reads 12.5

Entry under test: CC[C@H]1OC(=O)C[C@@H](O)[C@H](C)[C@@H](O[C@@H]2O[C@H](C)[C@@H](O)C(N(C)C)C2O)[C@@H](CCN2CC(C)CC(C)C2)C[C@@H](C)C(=O)/C=C/C(C)=C/[C@@H]1CO[C@@H]1OC(C)[C@@H](O)[C@H](OC)C1OC (stereo partly drawn) [Tilmicosin, reference compound] . Its Inhibition zone (mm) was 20
